Test system: MS2 coat protein
Experiment: apparent KD of MS2 coat protein, switch ON state; designed switch direction (-1 OFF switch, 1 ON switch): 1; higher = weaker reporter binding
Settings: FMN input: 0 or 200 uM; Eterna round: R93 (includes R88 designs)
Each record gets a class by apparent KD of MS2 coat protein: lower band = under 20 nM, central band = from 20 nM up to 40 nM, upper band = 40 nM and over

Example cases with answers are listed next.
[
  {
    "sequence_string": "UAUAGACAUGAGGAUCACCCAUGUAGAAUUAUGGGAGGAUAUACAAAGACGAGAGUCAGAGUAGAAGGCCUAGGAC [salish99-ss1-155]",
    "discrete_label": "central band"
  },
  {
    "sequence_string": "GAAGACAUAGUUCAGGAUAUAGGAAUAGUCACAUGAGGAUCACCCAUGUGCAUUUAUAUGCGCACUUAGAAGGGAGGUAGUUAUC [SameState2 Malc#23]",
    "discrete_label": "central band"
  },
  {
    "sequence_string": "AUACUACAUGAGGAUCACCCAUGUUGAAAUAUGGAAGGAUAUACGUAGUAAAAUAACUACGUAGAAGGUCCAGAAA [SS1 MT 22]",
    "discrete_label": "lower band"
  },
  {
    "sequence_string": "AUAAAACAUGAGGAUCACCCAUGUAGACAUAUGGGAGGAUAUACUAGAUCGAAAGAUCUAGUAGAAGGUCUUUAAA [JL Mod of Eli 9]",
    "discrete_label": "upper band"
  }
]

Bin? GGAAGACAUGAGGAUCACCCAUGUGGGAUUAUGGGAGGAUAUACAAAGACGAGAGUCAGAGUAGAAGGCCUAGGAC [salish99-ss1-123(!)]
central band

Form field 'band' for AAGAGAAGAACUGAGGAUAUCAGGGAUGGUACAUGAGGAUCACCCAUGUUGGCAAGCGAAGAAACUGAGAAGGCAGAGAAGAAGAA [JR_SameState2_Sub6]
central band

Class? Entry: AAUCCAAAUAGUUAGGAUAUGGGAAUAAAAACAUGAGGAUCACCCAUGUAAUUGAAACAAGUUAACCAGAAGGGACAGGGUGAAA [JR_SS002_Sub210]
upper band

Recorded values, source the supplement of paper PMC9170038.
